# Target: Protein deacetylase HDAC6 (Homo sapiens)
# Sequence (Q9UBN7 whole entry): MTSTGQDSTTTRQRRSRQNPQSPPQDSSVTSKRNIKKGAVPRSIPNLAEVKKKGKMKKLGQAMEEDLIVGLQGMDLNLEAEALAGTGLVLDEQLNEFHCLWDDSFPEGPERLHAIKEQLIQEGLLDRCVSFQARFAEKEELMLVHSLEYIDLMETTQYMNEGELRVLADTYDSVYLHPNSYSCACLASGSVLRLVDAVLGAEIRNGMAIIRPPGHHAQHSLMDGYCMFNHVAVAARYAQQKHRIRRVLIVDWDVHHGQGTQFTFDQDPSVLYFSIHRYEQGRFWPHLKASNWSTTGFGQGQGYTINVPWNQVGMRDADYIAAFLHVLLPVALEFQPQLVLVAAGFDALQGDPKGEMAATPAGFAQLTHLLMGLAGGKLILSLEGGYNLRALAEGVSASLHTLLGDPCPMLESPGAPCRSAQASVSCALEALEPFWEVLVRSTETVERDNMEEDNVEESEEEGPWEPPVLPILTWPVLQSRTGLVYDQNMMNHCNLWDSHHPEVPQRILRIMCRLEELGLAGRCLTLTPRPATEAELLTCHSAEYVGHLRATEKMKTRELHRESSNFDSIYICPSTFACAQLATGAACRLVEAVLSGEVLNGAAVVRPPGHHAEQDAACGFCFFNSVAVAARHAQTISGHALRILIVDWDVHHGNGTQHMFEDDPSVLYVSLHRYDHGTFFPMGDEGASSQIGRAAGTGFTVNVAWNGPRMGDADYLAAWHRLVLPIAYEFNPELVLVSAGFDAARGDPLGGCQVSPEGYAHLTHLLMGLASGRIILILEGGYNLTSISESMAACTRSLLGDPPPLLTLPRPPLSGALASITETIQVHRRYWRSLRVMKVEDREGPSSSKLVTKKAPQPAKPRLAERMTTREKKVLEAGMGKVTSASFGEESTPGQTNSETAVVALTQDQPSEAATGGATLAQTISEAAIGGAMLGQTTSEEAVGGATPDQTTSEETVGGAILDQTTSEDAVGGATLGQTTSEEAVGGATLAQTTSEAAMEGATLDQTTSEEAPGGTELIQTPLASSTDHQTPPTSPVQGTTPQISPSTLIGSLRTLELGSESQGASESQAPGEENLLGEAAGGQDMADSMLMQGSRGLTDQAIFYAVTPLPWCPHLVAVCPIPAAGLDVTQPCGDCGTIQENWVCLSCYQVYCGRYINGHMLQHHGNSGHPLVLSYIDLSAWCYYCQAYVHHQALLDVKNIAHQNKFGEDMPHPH
# Assay Name: Inhibition of recombinant human HDAC6 using Boc-Lys (acetyl)-AMC as substrate preincubated with compound for 1 hr followed by substrate addition and measured after 30 mins by microplate reader assay
Reported Metric: IC50

                               query_smiles  result
0  C=C1C(=O)O[C@@H]2C[C@@]3(C)CC[C@@H](OC(=O)[C@@H](CC)NC(=O)c4ccc(C(=O)Nc5ccccc5N)cc4)C(=C)[C@@H]3C[C@H]12  > 1 µM
1  C=C1C(=O)O[C@@H]2C[C@@]3(C)CC[C@@H](OC(=O)[C@H](C)NC(=O)c4ccc(C(=O)Nc5ccccc5N)cc4)C(=C)[C@@H]3C[C@H]12  > 1 µM
2  C=C1C(=O)O[C@@H]2C[C@@]3(C)CC[C@@H](OC(=O)[C@H](Cc4ccccc4)NC(=O)c4ccc(C(=O)Nc5ccccc5N)cc4)C(=C)[C@@H]3C[C@H]12  > 1 µM

Reference source: ChEMBL document CHEMBL6071142
